Listing: IC50 of selected compounds
Target: PDE10A (Homo sapiens, UniProt Q9Y233)
Sequence (Q9Y233 whole entry, looked up): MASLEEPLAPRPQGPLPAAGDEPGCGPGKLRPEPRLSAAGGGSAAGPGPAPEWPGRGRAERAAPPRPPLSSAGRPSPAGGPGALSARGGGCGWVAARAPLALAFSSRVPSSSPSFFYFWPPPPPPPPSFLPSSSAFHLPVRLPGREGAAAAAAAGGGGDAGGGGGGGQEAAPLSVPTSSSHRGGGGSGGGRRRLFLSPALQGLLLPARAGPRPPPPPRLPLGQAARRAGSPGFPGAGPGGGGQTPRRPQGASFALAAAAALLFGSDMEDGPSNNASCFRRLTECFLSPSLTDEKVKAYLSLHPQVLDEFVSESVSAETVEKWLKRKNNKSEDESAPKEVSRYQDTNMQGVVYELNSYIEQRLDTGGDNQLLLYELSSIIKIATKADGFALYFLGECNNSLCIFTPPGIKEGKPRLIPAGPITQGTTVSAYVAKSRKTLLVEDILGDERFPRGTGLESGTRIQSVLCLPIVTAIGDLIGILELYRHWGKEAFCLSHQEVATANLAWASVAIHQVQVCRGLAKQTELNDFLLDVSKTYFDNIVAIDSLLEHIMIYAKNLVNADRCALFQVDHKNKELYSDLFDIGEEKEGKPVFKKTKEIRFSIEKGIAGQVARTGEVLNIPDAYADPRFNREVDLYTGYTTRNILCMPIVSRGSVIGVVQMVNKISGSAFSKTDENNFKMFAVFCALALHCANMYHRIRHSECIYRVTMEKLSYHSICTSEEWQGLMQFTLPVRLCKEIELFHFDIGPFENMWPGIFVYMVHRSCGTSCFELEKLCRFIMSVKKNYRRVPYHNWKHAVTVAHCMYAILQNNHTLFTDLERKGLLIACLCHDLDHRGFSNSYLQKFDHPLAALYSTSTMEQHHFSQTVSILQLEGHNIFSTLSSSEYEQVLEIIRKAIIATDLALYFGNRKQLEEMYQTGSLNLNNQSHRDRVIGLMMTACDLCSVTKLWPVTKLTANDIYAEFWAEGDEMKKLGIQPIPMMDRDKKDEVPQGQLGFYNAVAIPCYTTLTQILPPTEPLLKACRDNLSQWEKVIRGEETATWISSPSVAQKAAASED
Where a name gives a salt, the structure may show the parent alone.
Supply the numeric figure in nM, leaving out any unit text.

Observe how each entry below is paired with its result.
Compound: COc1cc2c(C)nc(O)c(Cc3ccnc4ccccc34)c2cc1OC [Compound 25, dihydrochloride]
System name: PDE10A (Homo sapiens, UniProt Q9Y233)
IC50 (nM): 265
//
Compound: COc1cc2c(C(C)C)nc(O)c(Cc3cnc4ccccc4c3)c2cc1OC [Compound 79, dihydrochloride]
System name: PDE10A (Homo sapiens, UniProt Q9Y233)
IC50 (nM): 88
//
Compound: CCc1nc(O)c(Cc2cnc3cc(OC)ccc3c2)c2cc(OC)c(OC)cc12 [Compound 31, dihydrochloride]
System name: PDE10A (Homo sapiens, UniProt Q9Y233)
IC50 (nM): 13

Report IC50, nothing else, for this compound: COc1cc2c(C)nc(O)c(Cc3ccc4cnccc4c3)c2cc1OC [Compound 21, dihydrochloride]
333

Supply recorded IC50 for CCc1nc(O)c(Cc2cc3cc(OC)ccc3nc2NCC(F)(F)F)c2cc(OC)c(OC)cc12 [Compound 45, dihydrochloride] here.
30

Please list IC50 recorded for the compound COc1ccc2nc(NCC(F)(F)F)c(Cc3c(O)nc(C(C)C)c4cc(OC)c(OC)cc34)cc2c1 [Compound 51, dihydrochloride]
55

Give reported IC50 value for CCOc1ccc2cc(Cc3c(O)nc(C)c4cc(OC)c(OC)cc34)cnc2c1 [Compound 30, dihydrochloride]
21

====

Molecular target: PDE10A
Assay: Phosphodiesterase assay (TR-FRET, LANCE cAMP kit)
Details: PDE10A (BPS Bioscience) 200 pg/well, biotin-cAMP substrate, 60 min at room temperature
Description: The PDE assay is based on the homogenous time-resolved fluorescence resonance energy transfer (TR-FRET) technology (LANCE® from Perkin Elmer). […] In a 384-well plate, 2 μL inhibitor and 3 μL PDE were added to the well, followed by the addition of 5 μl substrate biotinylated cAMP (1:5). […] After 1 h at room temperature, the signal was measured on EnVision™ (Perkin Elmer).
pIC50: −log10 of the molar value. Where a name gives a salt, the structure may show the parent alone.
Answer NO if pIC50 is under 8, and YES if it is 8 or more.

Known results for compounds:
Compound: CCc1nc(O)c(Cc2cc3cc(OCC4CC4)ccc3nc2NCCNC(C)=O)c2cc(OC)c(OC)cc12 [Compound 87, dihydrochloride]
Classification: YES
--
Compound: CCNc1nc2ccc(OC)cc2cc1Cc1c(O)nc(CNC(C)=O)c2cc(OC)c(OC)cc12 [Compound 57, dihydrochloride]
Classification: NO
--
Compound: CCNc1nc2cc(F)c(OC)cc2cc1Cc1c(O)nc(CC)c2cc(OC)c(OC)cc12 [Compound 82, dihydrochloride]
Classification: YES
--
Compound: CCCc1nc(O)c(Cc2cc3cc(OC)ccc3nc2NCCNC(C)=O)c2cc(OC)c(OC)cc12 [Compound 55, dihydrochloride]
Classification: YES
--
Compound: CCCNc1nc2ccc(OC)cc2cc1Cc1c(O)nc(CC)c2cc(OC)c(OC)cc12 [Compound 42, dihydrochloride]
Classification: YES
--
Compound: CCc1nc(O)c(Cc2cccc(-c3ccccc3)c2)c2cc(OC)c(OC)cc12 [Compound 8, hydrochloride]
Classification: NO
--
Compound: CCCc1nc(N)c(Cc2ccc3oc4ccccc4c3c2)c2cc(OC)c(OC)cc12 [Compound 65, hydrochloride]
Classification: NO
--
Compound: CCCCc1nc2ccc(OC)cc2cc1Cc1c(O)nc(CCC)c2cc(OC)c(OC)cc12 [Compound 71, dihydrochloride]
Classification: NO
--
Compound: CCc1nc(O)c(Cc2cc3cc(OC)ccc3nc2NC)c2cc(OC)c(OC)cc12 [Compound 39, dihydrochloride]
Classification: YES
--
Compound: CCNc1nc2ccc(OC)cc2cc1Cc1c(OC(C)=O)nc(CNC(C)=O)c2cc(OC)c(OC)cc12
Classification: NO

Given CCc1nc(O)c(Cc2cc3cc(OC)ccc3nc2N=[N+]=[N-])c2cc(OC)c(OC)cc12 [Compound 68, dihydrochloride] , state whether its pIC50 is at least 8.
NO

Answer whether pIC50 of COc1cc2c(C)nc(O)c(Cc3cccc(-c4ccccc4)n3)c2cc1OC [Compound 12, dihydrochloride] is greater than or equal to 8.
NO

Can CCCc1nc(O)c(Cc2cc3cc4c(cc3nc2NC)OCO4)c2cc(OC)c(OC)cc12 [Compound 62, dihydrochloride] be said to have pIC50 at or above 8?
YES
